# TESTED_ON: SMARCA4 (Homo sapiens, UniProt P51532)
# Sequence (P51532 whole entry): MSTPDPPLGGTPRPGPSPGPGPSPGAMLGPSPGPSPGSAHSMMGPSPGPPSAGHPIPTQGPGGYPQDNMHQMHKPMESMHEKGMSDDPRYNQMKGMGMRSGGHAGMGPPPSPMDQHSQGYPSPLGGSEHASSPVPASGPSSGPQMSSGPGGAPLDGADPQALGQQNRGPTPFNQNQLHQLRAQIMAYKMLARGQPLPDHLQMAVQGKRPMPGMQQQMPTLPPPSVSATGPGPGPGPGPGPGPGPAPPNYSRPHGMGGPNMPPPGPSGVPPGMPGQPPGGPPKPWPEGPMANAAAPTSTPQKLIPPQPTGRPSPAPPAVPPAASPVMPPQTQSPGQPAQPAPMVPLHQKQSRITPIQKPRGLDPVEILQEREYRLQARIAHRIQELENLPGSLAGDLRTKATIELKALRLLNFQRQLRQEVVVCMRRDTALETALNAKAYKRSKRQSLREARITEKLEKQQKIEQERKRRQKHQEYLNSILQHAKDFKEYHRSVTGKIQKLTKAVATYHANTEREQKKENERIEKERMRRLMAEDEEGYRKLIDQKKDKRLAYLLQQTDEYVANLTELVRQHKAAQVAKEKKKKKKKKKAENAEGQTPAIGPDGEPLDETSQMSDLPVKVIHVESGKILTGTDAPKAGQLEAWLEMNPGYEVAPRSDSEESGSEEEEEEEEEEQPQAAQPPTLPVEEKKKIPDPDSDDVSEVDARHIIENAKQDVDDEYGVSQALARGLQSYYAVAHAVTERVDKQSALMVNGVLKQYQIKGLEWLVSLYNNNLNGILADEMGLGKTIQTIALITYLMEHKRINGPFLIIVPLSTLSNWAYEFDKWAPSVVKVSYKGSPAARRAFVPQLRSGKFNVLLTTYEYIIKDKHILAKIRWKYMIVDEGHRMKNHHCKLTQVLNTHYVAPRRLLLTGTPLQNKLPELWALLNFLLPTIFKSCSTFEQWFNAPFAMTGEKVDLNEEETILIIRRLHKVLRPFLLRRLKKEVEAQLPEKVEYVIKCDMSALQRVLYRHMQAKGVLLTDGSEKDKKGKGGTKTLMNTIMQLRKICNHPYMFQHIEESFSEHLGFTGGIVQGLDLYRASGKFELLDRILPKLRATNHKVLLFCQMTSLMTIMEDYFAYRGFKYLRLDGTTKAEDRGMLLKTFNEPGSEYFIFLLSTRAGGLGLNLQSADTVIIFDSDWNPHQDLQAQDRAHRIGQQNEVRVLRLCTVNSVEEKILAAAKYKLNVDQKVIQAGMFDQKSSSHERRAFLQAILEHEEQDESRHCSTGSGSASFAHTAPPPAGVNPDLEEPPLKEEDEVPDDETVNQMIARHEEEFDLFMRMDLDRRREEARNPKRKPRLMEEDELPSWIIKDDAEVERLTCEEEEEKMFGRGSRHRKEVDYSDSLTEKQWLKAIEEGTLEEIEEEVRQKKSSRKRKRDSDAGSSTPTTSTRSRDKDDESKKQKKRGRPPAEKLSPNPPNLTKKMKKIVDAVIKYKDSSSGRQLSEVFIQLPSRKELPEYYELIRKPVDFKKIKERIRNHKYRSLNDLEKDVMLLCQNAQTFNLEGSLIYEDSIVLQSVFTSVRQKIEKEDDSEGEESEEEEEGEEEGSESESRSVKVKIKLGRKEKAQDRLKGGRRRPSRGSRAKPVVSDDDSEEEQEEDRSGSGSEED
# MEASUREMENT_DESCRIPTION: HiBiT assay for protein degradation, Hela SMARCA4-HiBiT cells (A series)
# Assay type: cell-based
# Set-up: fuse HiBiT to the carboxy terminus of SMARCA2 (Promega CS302365) or SMARCA4 (Promega CS3023225); host or cells: HeLa (CRISPR/Cas9 HiBiT knock-in)
# CONDITION: Hela SMARCA4-HiBiT cells, 24 hours treatment
OBSERVATION_TYPE: SMARC A4 Hela HiBit DC50(nM)

Use the examples below as a reference point.
Cc1ncsc1-c1ccc([C@H](C)NC(=O)[C@@H]2C[C@@H](O)CN2C(=O)[C@H](C2CCOCC2)n2cc([C@H]3CC[C@H](CN4CCC(c5ccc6c(c5)-n5c(nc(=O)c7c(Cl)cccc75)C65CCCCC5)CC4)CC3)nn2)cc1 | No fit
Cc1ncsc1-c1ccc([C@H](CCCCN2CCC(c3ccc4c(c3)-n3c(nc(=O)c5c(Cl)cccc53)C43CCOCC3)CC2)NC(=O)[C@@H]2C[C@@H](O)CN2C(=O)[C@@H](NC(=O)C2(F)CC2)C(C)(C)C)cc1 | No fit
Cc1ncsc1-c1ccc([C@H](C)NC(=O)[C@@H]2C[C@@H](O)CN2C(=O)[C@H](C2CCCCC2)n2cc([C@H]3CC[C@H](CN4CCC(c5ccc6c(c5)-n5c(nc(=O)c7c(Cl)cccc75)C6(C)C)CC4)CC3)nn2)cc1 | No fit
Cc1ncsc1-c1ccc([C@H](C)NC(=O)[C@@H]2C[C@@H](O)CN2C(=O)[C@@H](n2cc([C@H]3CC[C@H](CN4CCC(c5ccc6c(n5)-n5c(nc(=O)c7c(Br)cccc75)C65CCCCC5)CC4)CC3)nn2)C(C)(C)C)cc1 | No Fit
Cc1ncsc1-c1ccc([C@H](C)NC(=O)[C@@H]2C[C@@H](O)CN2C(=O)[C@@H](NC(=O)[C@H]2CC[C@H](CN3CCC(c4ccc5c(n4)-n4c(nc(=O)c6c(Br)cccc64)C54CCCCC4)CC3)CC2)C(C)(C)C)cc1 | No Fit
Cc1ncsc1-c1ccc([C@H](C)NC(=O)[C@@H]2C[C@@H](O)CN2C(=O)[C@@H](NC(=O)CCCN2CCC(c3ccc4c(c3)C3(CCCCC3)c3nc(=O)c5c(Cl)cccc5n3-4)CC2)C(C)(C)C)cc1 | No fit

Consider the additional molecule presented here.
Lookup result for `Cc1ncsc1-c1ccc([C@H](CN(C)C)NC(=O)[C@@H]2C[C@@H](O)CN2C(=O)[C@@H](NC(=O)[C@H]2CC[C@H](CN3CCC(c4ccc5c(c4)C4(CCCCC4)c4nc(=O)c6c(Br)cccc6n4-5)CC3)CC2)C(C)(C)C)cc1` ; measured SMARC A4 Hela HiBit DC50(nM): No Fit

---

# TESTED_ON: SMARCA4 (Homo sapiens, UniProt P51532)
# MEASUREMENT_DESCRIPTION: HiBit assay in engineered HT1080 CRISPR knock-in cell, 6 hrs (B series), SMARCA4
# Format: cell-based
# CONDITION: HT1080 CRISPR knock-in cells, 6 hrs incubation; read-out: SMARC A4 HT1080 HiBit DC50
# Procedure: The HiBit assay was performed using engineered HT1080 CRISPR knock-in cell utilizing the Nano-Glo HiBiT Lytic Detection System from Promega, Cat #N3040. Compounds were transferred, 25 nL DMSO or test compounds (final DMSO @ 0.1%) to intermediate plates (Corning3570) using ECHO550. […] After briefly centrifugation (2000 rpm 1 mins), plate was read on Envision (Ultrasensitive luminescence model).
Would you mind telling me the reported DC50 of each entry?

Cc1ncsc1-c1ccc([C@H](C)NC(=O)[C@@H]2C[C@@H](O)CN2C(=O)[C@@H](n2cc(C34CC(C(=O)N5CCC(c6ccc7c(c6)-n6c(nc(=O)c8c(Cl)cccc86)C76CCCCC6)CC5)(C3)C4)nn2)C(C)(C)C)cc1 | < 0.1 µM
Cc1ncsc1-c1ccc([C@H](C)NC(=O)[C@@H]2C[C@@H](O)CN2C(=O)[C@H](C(C)C)n2cc(CN3CCC(c4ccc5c(c4)-n4c(nc(=O)c6c(Cl)cccc64)C5(C)C)CC3)nn2)cc1 | > 1 µM
Cc1ncsc1-c1ccc([C@H](C)NC(=O)[C@@H]2C[C@@H](O)CN2C(=O)[C@H](C(C)C)n2cc(C3CCC(CN4CCC(c5ccc6c(c5)C(C)(C)c5nc(=O)c7c(Cl)cccc7n5-6)CC4)CC3)nn2)cc1 (stereo partly shown) | 0.1 to 0.5 µM

Consider the additional molecule presented here.
Lookup result for `Cc1ncsc1-c1ccc([C@H](CN2CCOCC2)NC(=O)[C@@H]2C[C@@H](O)CN2C(=O)[C@@H](n2cc([C@H]3CC[C@H](CN4CCC(c5ccc6c(c5)-n5c(nc(=O)c7c(Br)cccc75)C6(C)C)CC4)CC3)nn2)C(C)(C)C)cc1` ; measured DC50: 0.1 to 0.5 µM
